# System: IL-2 production
# experiment summary: Inhibition of IL-2 production in PHA-activated Jurkat cells (ELISA)
# Type: cell-based
# condition info: Homo sapiens, Jurkat, 20 h, PHA 2.5 μg/mL, IL-2 ELISA
Kindly supply the reported IC50 values for the records listed here.

Form field: IC50 recorded for O=C(Nc1nc2c(s1)-c1ccccc1CCC2)c1c(F)cccc1F [Compound 16] with IL-2 production (enter value)
250 to 500 nM

Lookup Cc1csc(-c2cccc3c2CCCc2nc(NC(=O)c4c(F)cccc4F)sc2-3)n1 [Compound 71]
250 to 500 nM

Lookup COc1ccc2c(c1)-c1sc(C(=N)Nc3c(F)cccc3F)nc1CCC2 [Compound 152]
500 to 1000 nM

Lookup Fc1cccc(F)c1CNc1ccc2c(c1)CCCc1cnc(-c3cccnc3)nc1-2 [Compound 104]
> 1000 nM

Lookup O=C(Nc1nc2c(=O)oc3ccc(C(F)(F)F)cc3c2s1)c1c(F)cccc1F [Compound 1]
> 1000 nM

Lookup Cn1nnnc1-c1ccc2c(c1)CCCc1nc(NC(=O)c3c(F)cccc3F)sc1-2 [Compound 78]
≤ 30 nM

Lookup O=C(Nc1c(F)cccc1F)c1nc2c(s1)-c1cc(-c3cncnc3)ccc1CCC2 [Compound 124]
30 to 100 nM

Lookup COc1ccc2c(c1)-c1sc(NC(=O)c3c(F)cccc3F)nc1CCO2 [Compound 4]
> 1000 nM

Lookup N#Cc1ccc2c(c1)CCCc1nc(NC(=O)c3c(F)cccc3F)sc1-2 [Compound 59]
30 to 100 nM

Lookup O=C(Nc1nc2c(s1)-c1cc(-c3nccs3)ccc1CCC2)c1c(F)cccc1F [Compound 83]
100 to 250 nM

Lookup COc1ccc2c(c1)-c1cnc(NC(=O)c3c(F)cccc3F)nc1CCO2 [Compound 94]
> 1000 nM

Lookup O=C(Nc1c(F)cccc1F)c1nc2c(s1)-c1cc(-c3cccnc3F)ccc1CCC2 [Compound 122]
≤ 30 nM

Lookup O=C(Nc1nc2c(s1)-c1ccc(-c3ncco3)cc1CCC2)c1c(F)cccc1F [Compound 76]
30 to 100 nM

Lookup COc1ncccc1-c1ccc2c(c1)-c1sc(C(=O)Nc3c(F)cccc3F)nc1CCC2 [Compound 123]
≤ 30 nM

Lookup Cn1cncc1-c1ccc2c(c1)-c1sc(C(=O)Nc3c(F)cccc3F)nc1CCC2 [Compound 129]
≤ 30 nM

Lookup O=C(Nc1nc2c(s1)-c1cc(O)ccc1CCC2)c1c(F)cccc1F [Compound 79]
250 to 500 nM

Lookup O=C(Nc1nc2c(s1)-c1cc(Br)ccc1CCC2)c1c(F)cccc1F [Compound 17]
> 1000 nM

Lookup COc1cccc2c1CCCc1nc(NC(=O)c3ccncc3F)sc1-2 [Compound 14]
100 to 250 nM
